Duration of activity values, listed per item
Target: NK1 receptor (Cavia porcellus, UniProt P30547)
Construct: Guinea pigs (300-500 g) were anaesthetised with pentobarbital (50 mg/kg i.p.); from tissue; host or cells: whole anaesthetised guinea pig (in vivo)
Sequence (P30547 whole entry): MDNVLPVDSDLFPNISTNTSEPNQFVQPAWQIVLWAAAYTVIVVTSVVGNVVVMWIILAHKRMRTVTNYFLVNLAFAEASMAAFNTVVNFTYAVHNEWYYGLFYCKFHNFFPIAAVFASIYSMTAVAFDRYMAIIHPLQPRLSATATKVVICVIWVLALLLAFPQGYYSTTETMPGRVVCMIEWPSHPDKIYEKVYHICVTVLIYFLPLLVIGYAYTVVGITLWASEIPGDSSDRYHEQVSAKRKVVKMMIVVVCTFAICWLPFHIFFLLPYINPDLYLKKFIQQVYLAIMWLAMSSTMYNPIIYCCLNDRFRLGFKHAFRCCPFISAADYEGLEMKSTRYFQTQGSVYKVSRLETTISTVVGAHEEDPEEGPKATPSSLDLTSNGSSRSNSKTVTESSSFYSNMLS
Experiment: Inhibition of NK1-induced fall in blood pressure in anaesthetised guinea pigs (duration of activity)
Assay type: in vivo, guinea pig
Details: test substance intraduodenal, NK1-agonist 0.2 μmol/kg i.v. every 30 min for 6 to 8 hours
Readout: Duration of activity

# Compound, Study Target, Result
measured = [
    ("CN(CCc1cc(C(F)(F)F)cc(C(F)(F)F)c1)C(=O)C(c1ccccc1)N1CCC(N(C)CCCO)CC1 (stereo not shown)", "NK1 receptor (Cavia porcellus, UniProt P30547)", ">360 min"),
    ("CN(CCc1cc(C(F)(F)F)cc(C(F)(F)F)c1)C(=O)C(c1ccccc1)N1CCC(N(CCO)CCCO)CC1 (stereo not shown)", "NK1 receptor (Cavia porcellus, UniProt P30547)", ">360 min"),
    ("CN(CCc1cc(C(F)(F)F)cc(C(F)(F)F)c1)C(=O)C(c1ccccc1)N1CCC(NC(CO)CO)CC1 (stereo not shown)", "NK1 receptor (Cavia porcellus, UniProt P30547)", ">360 min"),
    ("CN(CCc1cc(C(F)(F)F)cc(C(F)(F)F)c1)C(=O)[C@H](c1ccccc1)N1CCC(N(CCCO)CC2CC2)CC1", "NK1 receptor (Cavia porcellus, UniProt P30547)", ">360 min"),
    ("CN(CCc1cc(C(F)(F)F)cc(C(F)(F)F)c1)C(=O)[C@H](c1ccccc1)N1CCC(N(CCO)CCO)CC1 [Example B-4, reference compound]", "NK1 receptor (Cavia porcellus, UniProt P30547)", "120 min"),
    ("CN(CCc1cc(C(F)(F)F)cc(C(F)(F)F)c1)C(=O)C(c1ccccc1)N1CCC(N(C)CC2CC2)CC1 (stereo not shown)", "NK1 receptor (Cavia porcellus, UniProt P30547)", ">360 min"),
    ("CN(CCc1cc(C(F)(F)F)cc(C(F)(F)F)c1)C(=O)[C@H](c1ccccc1)N1CCC(N(C)CCO)CC1 [Example B-1, reference compound]", "NK1 receptor (Cavia porcellus, UniProt P30547)", "120 min"),
]
